Some sequences, each annotated with its measured percentage of EdU-negative.
Test system: MCF7
test method notes: percentage of EdU-negative (G0-arrested) nuclei per well, 72 h; higher = more G0 arrest;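 also: secreted proteins added to cultured cells, EdU pulse at the end, nuclei found by Hoechst imaging, EdU status from nuclear versus surrounding ring intensity ratio, PBS as neutral control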
test conditions: protein concentration 0.225 µM; reference: sequence is the full UniProt precursor, the tested protein was the secreted form or ectodomain

>  <query sequence>
MDRRSRAQQWRRARHNYNDLCPPIGRRAATALLWLSCSIALLRALATSNARAQQRAAAQQRRSFLNAHHRSGAQVFPESPESESDHEHEEADLELSLPECLEYEEEFDYETESETESEIESETDFETEPETAPTTEPETEPEDDRGPVVPKHSTFGQSLTQRLHALKLRSPDASPSRAPPSTQEPQSPREGEELKPEDKDPRDPEESKEPKEEKQRRRCKPKKPTRRDASPESPSKKGPIPIRRH

>  <percentage of EdU-negative (%)>
25.8

$$$$
>  <query sequence>
MRIMLLFTAILAFSLAQSFGAVCKEPQEEVVPGGGRSKRDPDLYQLLQRLFKSHSSLEGLLKALSQASTDPKESTSPEKRDMHDFFVGLMGKRSVQPDSPTDVNQENVPSFGILKYPPRAE [Q9UHF0]

>  <percentage of EdU-negative (%)>
25.6

$$$$
>  <query sequence>
MRLSVRRVLLAAGCALVLVLAVQLGQQVLECRAVLAGLRSPRGAMRPEQEELVMVGTNHVEYRYGKAMPLIFVGGVPRSGTTLMRAMLDAHPEVRCGEETRIIPRVLAMRQAWSKSGREKLRLDEAGVTDEVLDAAMQAFILEVIAKHGEPARVLCNKDPFTLKSSVYLSRLFPNSKFLLMVRDGRASVHSMITRKVTIAGFDLSSYRDCLTKWNKAIEVMYAQCMEVGKEKCLPVYYEQLVLHPRRSLKLILDFLGIAWSDAVLHHEDLIGKPGGVSLSKIERSTDQVIKPVNLEALSKWTGHIPGDVVRDMAQIAPMLAQLGYDPYANPPNYGNPDPFVINNTQRVLKGDYKTPANLKGYFQVNQNSTSSHLGSS

>  <percentage of EdU-negative (%)>
30.1

$$$$

====

Some sequences, each annotated with its measured percentage of EdU-negative.
System: hTERT-HMEC
test method notes: percentage of EdU-negative (G0-arrested) nuclei per well, 72 h; higher = more G0 arrest
test conditions: protein concentration 0.0225 µM; reference: sequence is the full UniProt precursor, the tested protein was the secreted form or ectodomain
assay readout: percentage of EdU-negative

>  <query sequence>
MQAPGRGPLGLRLMMPGRRGALREPGGCGSCLGVALALLLLLLPACCPVRAQNDTEPIVLEGKCLVVCDSSPSADGAVTSSLGISVRSGSAKVAFSATRSTNHEPSEMSNRTMTIYFDQVLVNIGNHFDLASSIFVAPRKGIYSFSFHVVKVYNRQTIQVSLMQNGYPVISAFAGDQDVTREAASNGVLLLMEREDKVHLKLERGNLMGGWKYSTFSGFLVFPL [Q8IUK8]

>  <result>
4.67%

$$$$
>  <query sequence>
MCVGARRLGRGPCAALLLLGLGLSTVTGLHCVGDTYPSNDRCCHECRPGNGMVSRCSRSQNTVCRPCGPGFYNDVVSSKPCKPCTWCNLRSGSERKQLCTATQDTVCRCRAGTQPLDSYKPGVDCAPCPPGHFSPGDNQACKPWTNCTLAGKHTLQPASNSSDAICEDRDPPATQPQETQGPPARPITVQPTEAWPRTSQGPSTRPVEVPGGRAVAAILGLGLVLGLLGPLAILLALYLLRRDQRLPPDAHKPPGGGSFRTPIQEEQADAHSTLAKI

>  <result>
5.89%

$$$$

These entries and their values trace back to the supplement of paper PMC11316812.
